Method Notes: MTT cell viability assay, HepG2
Assay type: cell-based, human
Condition Info: human, HepG2 cells; HepG2, HCQ 40 μM pretreatment 1 h, no Sa/DDP; untreated 100.00 ± 19.04%
Counter-ions that a name gives are not always drawn.
Experimental Readout: viability at 1 h, 40 μM (%)
The reply should be a number in %, with the unit left off.

Query: Please list viability at 1 h, 40 μM recorded for the compound CCN(CCO)CCCC(C)Nc1ccnc2cc(Cl)ccc12 (stereo not shown) [HCQ, Hydroxychloroquine sulfate, reference compound]
Reply: 98.3

====

Test system: HL-7702 cells
Method Notes: MTT cell viability assay, normal liver HL-7702
Type: cell-based, human
Condition Info: Homo sapiens, L02; HL-7702, Sa treatment, 48 h, MTT; read-out: IC50 48 h
Experimental Readout: pIC50
Hey, just a heads up that pIC50 is the negative log base 10 of the concentration in molar.

Query: Please list pIC50 recorded for the molecule `COc1cc(/C=C/C(=O)O)cc(OC)c1O`
Reply: 2.35

====

Test system: HepG2 cells
Method Notes: MTT cell viability assay, HepG2
Type: cell-based, human
Condition Info: Homo sapiens; HepG2, Sa treatment, 24 h, MTT; read-out: IC50 24 h
Experimental Readout: pIC50
Hey, just a heads up that pIC50 is the negative log base 10 of the concentration in molar.

Query: Please list pIC50 recorded for the compound `COc1cc(/C=C/C(=O)O)cc(OC)c1O`
Reply: 2.75

====

Method Notes: MTT cell viability assay, HepG2
Format: cell-based, human
Condition Info: human, HepG2 cells; HepG2, Sa 600 µM, 72 h
Experimental Readout: viability at 72 h, 600 µM (%)
The reply should be a number in %, with the unit left off.

Query: Please list viability at 72 h, 600 µM recorded for the compound `COc1cc(/C=C/C(=O)O)cc(OC)c1O`
Reply: 71.3
